Molecular target: human somatostatin receptor subtype 2 (Homo sapiens, UniProt P30874)
Construct: expressed in transfected cells
Sequence (P30874 whole entry): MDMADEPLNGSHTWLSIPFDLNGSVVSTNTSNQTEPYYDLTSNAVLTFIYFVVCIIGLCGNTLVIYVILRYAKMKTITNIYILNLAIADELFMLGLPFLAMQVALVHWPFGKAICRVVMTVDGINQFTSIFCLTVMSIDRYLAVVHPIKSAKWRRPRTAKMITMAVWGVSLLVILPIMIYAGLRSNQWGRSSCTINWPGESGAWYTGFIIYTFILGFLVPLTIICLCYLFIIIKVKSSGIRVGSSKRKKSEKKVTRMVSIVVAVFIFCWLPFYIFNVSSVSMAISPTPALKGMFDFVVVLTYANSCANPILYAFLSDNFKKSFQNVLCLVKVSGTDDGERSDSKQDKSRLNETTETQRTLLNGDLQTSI
Assay: Functional assay for SSTR2 agonists (HTRF cAMP)
Assay type: cell-based
Settings: CHO-K1 cells stably expressing human SST2; NKH477-stimulated cAMP; 20 min at 37 C; read-out: hSST2 cAMP Avg EC50
Description: General overview: All five SSTR subtypes are Gi coupled G-protein coupled receptors (GPCRs) that lead to decreases in intracellular cyclic AMP (cAMP) when activated by an agonist. Therefore, measurement of intracellular cAMP levels can be used to assess whether compounds of the invention are agonists of SSTR subtypes (John Kelly, Troy Stevens, W. Joseph Thompson, and Roland Seifert, Current Protocols in Pharmacology. 2005, 2.2.1-2.2). One example of an intracellular cAMP assay is described below. […]
Listing: EC50 of selected compounds
Assay endpoint: EC50 (nM)

• CC[C@H](C)[C@@H]([C@@H](CC(=O)N1CCC[C@H]1[C@H](OC)[C@@H](C)C(=O)N[C@H](C)[C@@H](O)c1ccccc1)OC)N(C)C(=O)[C@@H](NC(=O)[C@H](C(C)C)N(C)C(=O)OCc1ccc(NC(=O)[C@H](CCCNC(N)=O)NC(=O)[C@@H](NC(=O)C[C@@H](N)C(=O)NCCOCCC(=O)NCCNc2ncc(-c3cc(C)cc(F)c3)c(N3CCC(N)CC3)c2-c2nc3ccc(Cl)cc3[nH]2)C(C)C)c(CCC(=O)O)c1)C(C)C [Compound 205] = 0.086
• CC[C@H](C)[C@@H]([C@@H](CC(=O)N1CCC[C@H]1[C@H](OC)[C@@H](C)C(=O)N[C@H](C)[C@@H](O)c1ccccc1)OC)N(C)C(=O)[C@@H](NC(=O)[C@H](C(C)C)N(C)C(=O)OCc1ccc(NC(=O)[C@H](CCCNC(N)=O)NC(=O)[C@@H](NC(=O)C[C@@H](N)C(=O)NCCOCCC(=O)NCCNc2ncc(-c3cc(C)cc(F)c3)c(N3CCC(N)CC3)c2-c2nc3ccc(Cl)cc3[nH]2)C(C)C)cc1)C(C)C [Compound 181] = 0.38
• CC[C@H](C)[C@@H]([C@@H](CC(=O)N1CCC[C@H]1[C@H](OC)[C@@H](C)C(=O)N[C@H](C)[C@@H](O)c1ccccc1)OC)N(C)C(=O)[C@@H](NC(=O)[C@H](C(C)C)N(C)C(=O)OCc1ccc(NC(=O)[C@H](CCCNC(N)=O)NC(=O)[C@@H](NC(=O)c2cc(NCCCCCC(=O)NCCNc3ncc(-c4cc(C)cc(F)c4)c(N4CCC(N)CC4)c3-c3nc4ccc(F)cc4[nH]3)cc(C(=O)NCC(=O)O)c2)C(C)C)cc1)C(C)C [Compound 167] = 0.24

* * *

Measured EC50 values are reported for all entries that follow.
Target: human somatostatin receptor subtype 2 (Homo sapiens, UniProt P30874)
Construct: expressed in transfected cells
Assay: Functional assay for SSTR2 agonists (HTRF cAMP)
Type: cell-based
Details: CHO-K1 cells stably expressing human SST2; NKH477-stimulated cAMP; 20 min at 37 C; read-out: hSST2 cAMP Avg EC50
Text: General overview: All five SSTR subtypes are Gi coupled G-protein coupled receptors (GPCRs) that lead to decreases in intracellular cyclic AMP (cAMP) when activated by an agonist. Therefore, measurement of intracellular cAMP levels can be used to assess whether compounds of the invention are agonists of SSTR subtypes (John Kelly, Troy Stevens, W. Joseph Thompson, and Roland Seifert, Current Protocols in Pharmacology. 2005, 2.2.1-2.2). One example of an intracellular cAMP assay is described below. […]
Assay endpoint: EC50 (nM)

* CC[C@H](C)[C@@H]([C@@H](CC(=O)N1CCC[C@H]1[C@H](OC)[C@@H](C)C(=O)N[C@H](C)[C@@H](O)c1ccccc1)OC)N(C)C(=O)[C@@H](NC(=O)[C@H](C(C)C)N(C)C(=O)OCc1ccc(NC(=O)[C@H](CCCNC(N)=O)NC(=O)[C@@H](NC(=O)c2cc(NCCCCCC(=O)NCCNc3ncc(-c4cc(C)cc(F)c4)c(N4CCC(N)CC4)c3-c3nc4ccc(Cl)cc4[nH]3)cc(C(=O)NCC(=O)O)c2)C(C)C)cc1)C(C)C | 1.6
* CC[C@H](C)[C@@H]([C@@H](CC(=O)N1CCC[C@H]1[C@H](OC)[C@@H](C)C(=O)N[C@H](C)[C@@H](O)c1ccccc1)OC)N(C)C(=O)[C@@H](NC(=O)[C@H](C(C)C)N(C)C(=O)OCc1ccc(NC(=O)[C@H](C)NC(=O)[C@@H](NC(=O)CCOCCC(=O)NCCNc2ncc(-c3cc(C)cc(F)c3)c(N3CCC(N)CC3)c2-c2nc3ccc(Cl)cc3[nH]2)C(C)C)c(O)c1)C(C)C | 0.44
* CC[C@H](C)[C@@H]([C@@H](CC(=O)N1CCC[C@H]1[C@H](OC)[C@@H](C)C(=O)N[C@H](C)[C@@H](O)c1ccccc1)OC)N(C)C(=O)[C@@H](NC(=O)[C@H](C(C)C)N(C)C(=O)OCc1ccc(NC(=O)[C@H](CCCNC(N)=O)NC(=O)C2(NC(=O)CCOCCC(=O)NCCNc3ncc(-c4cc(C)cc(F)c4)c(N4CCC(N)CC4)c3-c3nc4ccc(Cl)cc4[nH]3)CCC2)c(O[C@H]2O[C@H](C(=O)NCC(=O)O)[C@@H](O)[C@H](O)[C@H]2O)c1)C(C)C | 0.051

* * *

Molecular target: human somatostatin receptor subtype 2 (Homo sapiens)
Construct: expressed in transfected cells
Assay: Functional assay for SSTR2 agonists (HTRF cAMP)
Type: cell-based
Conditions: CHO-K1 cells stably expressing human SST2; NKH477-stimulated cAMP; 20 min at 37 C; read-out: hSST2 cAMP Avg EC50
pEC50: −log10 of the molar value.
Assay endpoint: pEC50

- CC[C@H](C)[C@@H]([C@@H](CC(=O)N1CCC[C@H]1[C@H](OC)[C@@H](C)C(=O)N[C@H](C)[C@@H](O)c1ccccc1)OC)N(C)C(=O)[C@@H](NC(=O)[C@H](C(C)C)N(C)C(=O)OCc1ccc(NC(=O)C(CCCNC(N)=O)NC(=O)C2(NC(=O)CCOCCC(=O)NCCNc3ncc(-c4cc(C)cc(F)c4)c(N4CCC(N)CC4)c3-c3nc4ccc(Cl)cc4[nH]3)CCC2)c(O[C@@H]2O[C@H](C(=O)O)[C@@H](O)[C@H](O)[C@H]2O)c1)C(C)C (stereo partly drawn) [Compound 242]: 10.35
- CC[C@H](C)[C@@H]([C@@H](CC(=O)N1CCC[C@H]1[C@H](OC)[C@@H](C)C(=O)N[C@H](C)[C@@H](O)c1ccccc1)OC)N(C)C(=O)[C@@H](NC(=O)[C@H](C(C)C)N(C)C(=O)OCc1ccc(NC(=O)[C@H](C)NC(=O)[C@@H](NC(=O)CCOCCC(=O)N(C)CC(=O)NCCNc2ncc(-c3cc(C)cc(F)c3)c(N3CCC(N)CC3)c2-c2nc3ccc(Cl)cc3[nH]2)C(C)C)c(O[C@@H]2O[C@H](C(=O)NCS(=O)(=O)O)[C@@H](O)[C@H](O)[C@H]2O)c1)C(C)C [Compound 50]: 9.89
- CC[C@H](C)[C@@H]([C@@H](CC(=O)N1CCC[C@H]1[C@H](OC)[C@@H](C)C(=O)N[C@H](C)[C@@H](O)c1ccccc1)OC)N(C)C(=O)[C@@H](NC(=O)[C@H](C(C)C)N(C)C(=O)OCc1ccc(NC(=O)[C@H](CCCNC(N)=O)NC(=O)[C@@H](NC(=O)CCCCCCCCNc2ncc(-c3cc(C)cc(F)c3)c(N3CCC(N)CC3)c2-c2nc3ccc(Cl)cc3[nH]2)C(C)C)c(O[C@@H]2O[C@H](C(=O)NCC(=O)O)[C@@H](O)[C@H](O)[C@H]2O)c1)C(C)C [Compound 193]: 9.06
- CC[C@H](C)[C@@H]([C@@H](CC(=O)N1CCC[C@H]1[C@H](OC)[C@@H](C)C(=O)N[C@H](C)[C@@H](O)c1ccccc1)OC)N(C)C(=O)[C@@H](NC(=O)[C@H](C(C)C)N(C)C(=O)OCc1ccc(NC(=O)[C@H](CCCNC(N)=O)NC(=O)[C@@H](NC(=O)CCOCCC(=O)NCCNc2ncc(-c3cc(C)cc(F)c3)c(N3CCC(N)CC3)c2-c2nc3ccc(Cl)cc3[nH]2)C(C)C)cc1C(=O)NOC)C(C)C [Compound 87]: 10.00
- CC[C@H](C)[C@@H]([C@@H](CC(=O)N1CCC[C@H]1[C@H](OC)[C@@H](C)C(=O)N[C@H](C)[C@@H](O)c1ccccc1)OC)N(C)C(=O)[C@@H](NC(=O)[C@H](C(C)C)N(C)C(=O)OCc1ccc(NC(=O)[C@H](CCCNC(N)=O)NC(=O)[C@@H](NC(=O)CCOCCOCCOCCOCCC(=O)NCCNc2ncc(-c3cc(C)cc(F)c3)c(N3CCC(N)CC3)c2-c2nc3ccc(Cl)cc3[nH]2)C(C)C)cc1C(=O)O)C(C)C [Compound 4]: 9.96
- CC[C@H](C)[C@@H]([C@@H](CC(=O)N1CCC[C@H]1[C@H](OC)[C@@H](C)C(=O)N[C@H](C)[C@@H](O)c1ccccc1)OC)N(C)C(=O)[C@@H](NC(=O)[C@H](C(C)C)N(C)C(=O)OCc1ccc(NC(=O)[C@H](CCCNC(N)=O)NC(=O)[C@@H](NC(=O)C[C@@H](N)C(=O)NCCOCCOCCOCCOCCC(=O)NCCNc2ncc(-c3cc(C)cc(F)c3)c(N3CCC(NC)CC3)c2-c2nc3ccc(Cl)cc3[nH]2)C(C)C)c(O[C@@H]2O[C@H](C(=O)O)[C@@H](O)[C@H](O)[C@H]2O)c1)C(C)C [Compound 122]: 9.72
- CC[C@H](C)[C@@H]([C@@H](CC(=O)N1CCC[C@H]1[C@H](OC)[C@@H](C)C(=O)N[C@H](C)[C@@H](O)c1ccccc1)OC)N(C)C(=O)[C@@H](NC(=O)[C@H](C(C)C)N(C)C(=O)OCc1ccc(NC(=O)[C@H](CCCNC(N)=O)NC(=O)[C@@H](NC(=O)c2cc(C(=O)NCC(=O)O)cc(N(C)CCOCCOCCOCCOCCC(=O)NCCNc3ncc(-c4cc(C)cc(F)c4)c(N4CCC(N)CC4)c3-c3nc4ccc(Cl)cc4[nH]3)c2)C(C)C)cc1)C(C)C [Compound 159]: 8.92
- CC[C@H](C)[C@@H]([C@@H](CC(=O)N1CCC[C@H]1[C@H](OC)[C@@H](C)C(=O)N[C@H](C)[C@@H](O)c1ccccc1)OC)N(C)C(=O)[C@@H](NC(=O)[C@H](C(C)C)N(C)C(=O)OCc1ccc(NC(=O)[C@H](C)NC(=O)[C@@H](NC(=O)C[C@@H](N)C(=O)NCCOCCC(=O)NCCNc2ncc(-c3cc(C)cc(F)c3)c(N3CCC(NC)CC3)c2-c2nc3ccc(Cl)cc3[nH]2)C(C)C)c(O[C@@H]2O[C@H](C(=O)O)[C@@H](O)[C@H](O)[C@H]2O)c1)C(C)C [Compound 135]: 9.38
- CC[C@H](C)[C@@H]([C@@H](CC(=O)N1CCC[C@H]1[C@H](OC)[C@@H](C)C(=O)N[C@H](C)[C@@H](O)c1ccccc1)OC)N(C)C(=O)[C@@H](NC(=O)[C@H](C(C)C)N(C)C(=O)OCc1ccc(NC(=O)[C@H](CCCNC(N)=O)NC(=O)[C@@H](NC(=O)c2cn(CCOCCC(=O)NCCNc3ncc(-c4cc(C)cc(F)c4)c(N4CCC(N)CC4)c3-c3nc4ccc(Cl)cc4[nH]3)nn2)C(C)C)cc1)C(C)C [Compound 142]: 9.43
